Assay: Dissociation constant, pKa of compound in aqueous solution in presence of HCL
Type: physicochemical
Conditions: aqueous solution with HCl
property_name: pKa

[
  {
    "test_smiles": "Cc1csc(N)n1",
    "observed": 4.64
  }
]

---

Observed Ki values for Histamine H3 receptor (Homo sapiens, UniProt Q9Y5N1) are listed in what follows.
property_name: Ki (µM)

[
  {
    "compound": "Cc1nc(N)sc1CCCN/C(N)=N/C(=O)NCC(C)CCCc1ccccc1 (stereo unspecified)",
    "property_name": "Ki",
    "unit_annotation": "µM",
    "observed": 2.29
  },
  {
    "compound": "Cc1nc(N)sc1CCCN/C(N)=N/C(=S)NC[C@@H](C)c1ccccc1",
    "property_name": "Ki",
    "unit_annotation": "µM",
    "observed": 83.2
  },
  {
    "compound": "COc1ccc(C(C)NC(=O)/N=C(\\N)NCCCc2sc(N)nc2C)cc1 (stereo unspecified)",
    "property_name": "Ki",
    "unit_annotation": "µM",
    "observed": 33.1
  },
  {
    "compound": "CCCNC(=O)/N=C(\\N)NCCCc1sc(N)nc1C",
    "property_name": "Ki",
    "unit_annotation": "µM",
    "observed": 44.7
  },
  {
    "compound": "Cc1nc(N)sc1CCCN/C(N)=N/C(=S)N[C@H](C)c1ccccc1",
    "property_name": "Ki",
    "unit_annotation": "µM",
    "observed": 64.6
  },
  {
    "compound": "Cc1nc(N)sc1CCCN/C(N)=N/C(=O)NCc1ccco1",
    "property_name": "Ki",
    "unit_annotation": "µM",
    "observed": 74.1
  }
]
